Target: T1, PUF4 RNA-binding domain (Saccharomyces cerevisiae, UniProt P25339 537-888)
T1 sequence: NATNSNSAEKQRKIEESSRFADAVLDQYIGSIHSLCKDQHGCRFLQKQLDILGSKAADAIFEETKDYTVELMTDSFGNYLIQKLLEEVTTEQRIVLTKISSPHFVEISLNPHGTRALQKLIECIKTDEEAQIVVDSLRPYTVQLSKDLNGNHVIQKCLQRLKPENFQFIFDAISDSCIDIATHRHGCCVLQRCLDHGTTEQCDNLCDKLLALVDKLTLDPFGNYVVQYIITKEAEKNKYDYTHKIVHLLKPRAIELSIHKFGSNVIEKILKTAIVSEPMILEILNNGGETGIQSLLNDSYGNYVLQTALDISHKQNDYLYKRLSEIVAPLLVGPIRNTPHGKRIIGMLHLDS
Assay: Mg; RNA-MaP; 20 mM Na-HEPES pH 7.4, 30 mM KOAc, 0.75 mM MgCl2, 0.1% Tween-20, 5% glycerol, 0.1 mg/mL BSA, 2 mM DTT; 25 C; 0.0125-409.6 nM protein
Settings: tags: N-His6-TEV cleaved; C-SNAP kept, Cy3B-labelled; label: tethered on chip by stalled RNA polymerase
pKd: −log10 of the molar value.

{"columns": ["BINDER", "QUALIFYING SIGN", "pKd"],
 "data": [
  ["UCUCUUUGUUUCCUAUAUUAUCUCUU (ssRNA) [Ie_S1_P4E.1_K4.1_C4.1_H4.1_[+3TTCCT]_A4.1_F4.1_T4.1]", "=", 7.23],
  ["ACAAACUAUAUAUUAUUAUUACAAAC (ssRNA) [Id_ii_S3_P5E.3_K5.2_C5.2_[C-2T]_[T-1A]_H5.2_A5.1_F5.1_T5.2_[A12T]]", "=", 7.72],
  ["UCUCUUUGUAGUGCUCUCUU (ssRNA) [Ic_S1_P3E.1_K3.1_C3.1_H3.1_A3.1_[T5G]_[A6T]_F3.1_[T7G]_[A8C]_T3.1]", "<", 5.64],
  ["Id_ii_S2_P5E.4_K5.3_C5.2_[C-2T]_[T-1C]_H5.3_A5.1_F5.1_T5.2_[T11A]_[A12T] (ssRNA) RNA: UUUGAUUAAUAUGAUAUCGUUCUUUCUUCACACUUAUUAAUUUCUUUCUCGAUAUCAUAUUAAUCUUU", "<", 5.64],
  ["UCUCUUACUUGUAAAUAUAUCUCUU (ssRNA) [Id_iii_S1_P3E.8_K3.4_C3.3_[T-3A]_H3.1_A3.2_F3.1_T3.2]", "=", 7.59],
  ["UCUCUUUCUUGUAUUUAAAUUCUCUU (ssRNA) [Id_iii_S1_P4E.9_K4.5_C4.3_H4.1_A4.2_F4.2_T4.2_[G10A]]", "=", 7.01],
  ["ACAAACUGGAUUUAACAAAC (ssRNA) [Ib_S3_P3E.1_K3.1_C3.1_H3.1_[T3G]_A3.1_[A6T]_F3.1_T3.1]", "<", 5.64],
  ["Ic_S2_P5E.1_K5.1_C5.1_H5.1_A5.1_[T5C]_[T6G]_[A7T]_F5.1_[T9G]_[A10T]_T5.1 (ssRNA) RNA: UUUGAUUAAUAUGAUAUCGUUCUUUCUUGUACGUUGUUUCUUUCUCGAUAUCAUAUUAAUCUUU", "=", 7.50]
]}

Measured values drawn from paper PMC9352680 for this set.
